Just for reference, patent US20210045385A1 is where these values come from.

Quick list: Galium plant response rating (0 to 100 scale) per entry.
Test system: galium (catchweed bedstraw, Galium aparine)
Experiment: Test C postemergence, visual plant response rating
Format: in vivo
Settings: Test C, postemergence, 125 g ai/ha
Field format: numeric only.

>  <substance.smiles>
CO/N=C(/c1c(O)c(C)nn(C)c1=O)c1cccc2cc(SC)ccc12

>  <recorded.measurement>
0

$$$$
>  <substance.smiles>
CON=C(c1cc(C)cc(Cl)c1)c1c(O)c(C)nn(C)c1=O

>  <recorded.measurement>
100

$$$$
>  <substance.smiles>
C#CCO/N=C(\c1cc(C)cc(Cl)c1)c1c(O)c(C)nn(C)c1=O

>  <recorded.measurement>
90

$$$$
>  <substance.smiles>
CON=C(c1c(OC(C)=O)c(Cl)nn(C)c1=O)c1ccc(F)c2ccccc12

>  <recorded.measurement>
100

$$$$
>  <substance.smiles>
CO/N=C(/c1cccc(/C=C\Cl)c1)c1c(O)c(C)nn(C)c1=O

>  <recorded.measurement>
70

$$$$
>  <substance.smiles>
CO/N=C(/c1c(O)cnn(C)c1=O)c1ccc(F)c2ccccc12

>  <recorded.measurement>
80

$$$$
>  <substance.smiles>
CO/N=C(\c1c(O)cnn(C)c1=O)c1ccc(F)c2ccccc12

>  <recorded.measurement>
70

$$$$
>  <substance.smiles>
CCCCON=C(c1cc(Cl)cc(Cl)c1Cl)c1c(O)c(C)nn(C)c1=O

>  <recorded.measurement>
50

$$$$

# evaluate next
// field: Galium plant response rating (0 to 100 scale); key: "C#CCO/N=C(\c1ccc(F)c(Br)c1)c1c(O)c(C)nn(C)c1=O" ; value = 70

----------
System: Italian ryegrass (Lolium mutiflorum)
Test: Test C preemergence, visual plant response rating
Format: in vivo
Settings: Test C, 31 g ai/ha, 0 is no effect, 100 is complete control
Listed below: Ryegrass, Italian plant response rating (0 to 100 scale) values for each entry.
Lab note: record the figure alone, no unit after it.

>  <compound>
CON=C(c1cc(C)cc(Cl)c1)c1c(O)c(C)nn(C)c1=O [Compound 174]

>  <recorded.measurement>
80

$$$$

Below: the item to evaluate.
Ryegrass, Italian plant response rating (0 to 100 scale) for CCO/N=C(\c1c(O)c(Cl)nn(C)c1=O)c1cc(Br)cc2ccccc12 [Compound 235] is 0

----------
Measured Ragweed plant response rating (0 to 100 scale) of individual entries
Test system: ragweed (common ragweed, Ambrosia artemisiifolia)
Assay: Test C preemergence, visual plant response rating
Assay type: in vivo
Details: 125 g ai/ha
Lab note: record just the number, no unit beside it.

Use these answered entries as a reference point.
>  <substance.smiles>
CO/N=C(/c1cc(Cl)cc(Br)c1)c1c(O)c(C)nn(C)c1=O

>  <recorded.measurement>
100

$$$$
>  <substance.smiles>
CO/N=C(/c1c(O)c(C)nn(C)c1=O)c1cccc2cc(Cl)ccc12

>  <recorded.measurement>
90

$$$$
>  <substance.smiles>
C#CCO/N=C(/c1cc(C)cc(Cl)c1)c1c(O)c(C)nn(C)c1=O

>  <recorded.measurement>
80

$$$$
>  <substance.smiles>
C#CCON=C(c1ccc(Cl)c(Cl)c1)c1c(O)c(C)nn(C)c1=O

>  <recorded.measurement>
40

$$$$

Next compound, Ragweed plant response rating (0 to 100 scale) to be filled in.
"Cc1nn(C)c(=O)c(/C(=N/OCc2ccccc2)c2ccc(F)c3ccccc23)c1O" yielded Ragweed plant response rating (0 to 100 scale) of 40
